experiment: MTT cytotoxicity assay; format: cell-based, human; details: human, HEK293T cells, OD450, cytotoxicity (Fig 2a), replicates
Residues, ends and D or L forms follow the SMILES beside them.
Provide the reported viability at 72 h, 6.25 µM of each item.
Give bare numbers, in %.

Example entries and their recorded answers appear below.
compound="CC[C@H](C)[C@H](NC(=O)[C@H](CCCNC(=N)N)NC(=O)[C@H](CCCNC(=N)N)NC(=O)[C@H](CC(C)C)NC(=O)[C@H](Cc1ccccc1)NC(=O)[C@H](CCCNC(=N)N)NC(=O)[C@@H](N)CCCNC(=N)N)C(=O)N[C@@H](Cc1ccccc1)C(=O)N[C@@H](Cc1ccccc1)C(=O)N[C@@H](Cc1ccccc1)C(=O)N[C@@H](Cc1ccccc1)C(N)=O [HT3] (H-RRFLRRIFFFF-NH2; N-terminus assumed)" endpoint="viability at 72 h, 6.25 µM" value_reported=94.9
compound="CC[C@H](C)[C@H](NC(=O)[C@H](CCCNC(=N)N)NC(=O)[C@H](CCCNC(=N)N)NC(=O)[C@H](CC(C)C)NC(=O)[C@H](Cc1ccccc1)NC(=O)[C@H](Cc1ccccc1)NC(=O)[C@H](Cc1ccccc1)NC(=O)[C@@H](N)Cc1ccccc1)C(=O)N[C@@H](Cc1ccccc1)C(N)=O [F-SHf(R^5)] (H-FFFFLRRIF-NH2; N-terminus assumed)" endpoint="viability at 72 h, 6.25 µM" value_reported=40.1

Continue with the next compound.
Entry CC[C@H](C)[C@H](NC(=O)[C@H](CCCNC(=N)N)NC(=O)[C@H](CCCNC(=N)N)NC(=O)[C@H](CC(C)C)NC(=O)[C@H](Cc1ccccc1)NC(=O)[C@@H](N)CCCNC(=N)N)C(=O)N[C@@H](Cc1ccccc1)C(=O)N[C@@H](CCCCN)C(=O)N[C@@H](Cc1ccccc1)C(=O)N[C@@H](Cc1ccccc1)C(=O)N[C@@H](Cc1ccccc1)C(N)=O [HT5] (H-RFLRRIFKFFF-NH2) has what viability at 72 h, 6.25 µM?
22.6

* * *

tested on: A. baumannii 1318; assay type: cell-based, Acinetobacter baumannii
Non-standard residues stand in square brackets, D forms with d. Residues, ends and D or L forms follow the SMILES beside them.
Please provide measured MIC Gram- A. b 1318 for the entries that follow.
Give bare numbers, in µM.

For orientation, consider the following solved cases.
compound="CC[C@H](C)[C@H](NC(=O)[C@H](CCCNC(=N)N)NC(=O)[C@H](CCCNC(=N)N)NC(=O)[C@H](CC(C)C)NC(=O)[C@H](Cc1ccccc1)NC(=O)[C@H](Cc1ccccc1)NC(=O)[C@H](Cc1ccccc1)NC(=O)[C@@H](N)Cc1ccccc1)C(=O)N[C@@H](Cc1ccccc1)C(N)=O [F-SHf(R^5)] (H-FFFFLRRIF-NH2; N-terminus assumed)" measurement_units=µM value_reported=25
compound="CC[C@H](C)[C@H](NC(=O)[C@H](CCCNC(=N)N)NC(=O)[C@H](CCCNC(=N)N)NC(=O)[C@H](CC(C)C)NC(=O)[C@H](Cc1ccccc1)NC(=O)[C@H](Cc1ccccc1)NC(=O)[C@H](Cc1ccccc1)NC(=O)[C@@H](N)Cc1ccccc1)C(=O)N[C@@H](Cc1ccccc1)C(=O)N[C@@H](CCCNC(=N)N)C(=O)N[C@@H](CCCNC(=N)N)C(N)=O [F-SHf(R^5)-RR] (H-FFFFLRRIFRR-NH2; N-terminus assumed)" measurement_units=µM value_reported=12.5
compound="CC[C@H](C)[C@H](NC(=O)[C@@H](CCCNC(=N)N)NC(=O)[C@@H](CCCNC(=N)N)NC(=O)[C@H](CC(C)C)NC(=O)[C@H](Cc1ccccc1)NC(=O)[C@H](Cc1ccccc1)NC(=O)[C@H](Cc1ccccc1)NC(=O)[C@@H](N)Cc1ccccc1)C(=O)N[C@@H](Cc1ccccc1)C(N)=O [F-SHf(dR^5, 6)] (H-FFFFL[dR][dR]IF-NH2; N-terminus assumed)" measurement_units=µM value_reported=12.5
compound="CC[C@H](C)[C@H](NC(=O)[C@H](CCCNC(=N)N)NC(=O)[C@H](CCCNC(=N)N)NC(=O)[C@H](CC(C)C)NC(=O)[C@H](Cc1ccccc1)NC(=O)[C@@H](N)CCCNC(=N)N)C(=O)N[C@@H](Cc1ccccc1)C(=O)N[C@@H](CCCNC(=N)N)C(=O)N[C@@H](Cc1ccccc1)C(=O)N[C@@H](Cc1ccccc1)C(=O)N[C@@H](Cc1ccccc1)C(N)=O [HT4] (H-RFLRRIFRFFF-NH2)" measurement_units=µM value_reported=3.13

# query: MIC Gram- A. b 1318 | item CC[C@@H](C)[C@@H](NC(=O)[C@@H](Cc1ccccc1)NC(=O)[C@@H](Cc1ccccc1)NC(=O)[C@@H](Cc1ccccc1)NC(=O)[C@H](N)Cc1ccccc1)C(=O)N[C@H](CCCNC(=N)N)C(=O)N[C@H](CCCNC(=N)N)C(=O)N[C@H](CC(C)C)C(=O)N[C@H](Cc1ccccc1)C(=O)N[C@H](CCCNC(=N)N)C(N)=O [RI-HT2] (H-[dF][dF][dF][dF][dI][dR][dR][dL][dF][dR]-NH2; N-terminus assumed) | system: A. baumannii 1318
3.13

* * *

assay: MTT cytotoxicity assay; type: cell-based, human; conditions: human
Residues, ends and D or L forms follow the SMILES beside them.
Would you mind telling me the reported IC50 at 72 h of each entry?
Numbers only, in nM.

// worked examples, IC50 at 72 h included
compound="CC[C@H](C)[C@H](NC(=O)[C@H](CCCNC(=N)N)NC(=O)[C@H](CCCNC(=N)N)NC(=O)[C@H](CC(C)C)NC(=O)[C@H](Cc1ccccc1)NC(=O)[C@@H](N)CCCNC(=N)N)C(=O)N[C@@H](Cc1ccccc1)C(=O)N[C@@H](CCCNC(=N)N)C(=O)N[C@@H](Cc1ccccc1)C(=O)N[C@@H](Cc1ccccc1)C(=O)N[C@@H](Cc1ccccc1)C(N)=O [HT4] (H-RFLRRIFRFFF-NH2)" endpoint="IC50 at 72 h" value_reported=2600
compound="CC[C@H](C)[C@H](NC(=O)[C@H](CCCNC(=N)N)NC(=O)[C@H](CCCNC(=N)N)NC(=O)[C@H](CC(C)C)NC(=O)[C@H](Cc1ccccc1)NC(=O)[C@H](CCCNC(=N)N)NC(=O)[C@@H](N)CCCNC(=N)N)C(=O)N[C@@H](Cc1ccccc1)C(=O)N[C@@H](Cc1ccccc1)C(=O)N[C@@H](Cc1ccccc1)C(=O)N[C@@H](Cc1ccccc1)C(N)=O [HT3] (H-RRFLRRIFFFF-NH2; N-terminus assumed)" endpoint="IC50 at 72 h" value_reported=49000
compound="CC[C@H](C)[C@H](NC(=O)[C@H](CCCNC(=N)N)NC(=O)[C@H](CCCNC(=N)N)NC(=O)[C@H](CC(C)C)NC(=O)[C@H](Cc1ccccc1)NC(=O)[C@H](Cc1ccccc1)NC(=O)[C@H](Cc1ccccc1)NC(=O)[C@@H](N)Cc1ccccc1)C(=O)N[C@@H](Cc1ccccc1)C(=O)N[C@@H](CCCNC(=N)N)C(=O)N[C@@H](CCCNC(=N)N)C(N)=O [F-SHf(R^5)-RR] (H-FFFFLRRIFRR-NH2; N-terminus assumed)" endpoint="IC50 at 72 h" value_reported=500
compound="CC[C@H](C)[C@H](NC(=O)[C@H](CCCNC(=N)N)NC(=O)[C@H](CCCNC(=N)N)NC(=O)[C@H](CC(C)C)NC(=O)[C@@H](N)Cc1ccccc1)C(=O)N[C@@H](Cc1ccccc1)C(=O)N[C@@H](Cc1ccccc1)C(=O)N[C@@H](Cc1ccccc1)C(=O)N[C@@H](Cc1ccccc1)C(N)=O [HT1] (H-FLRRIFFFF-NH2)" endpoint="IC50 at 72 h" value_reported=2700

Field request: IC50 at 72 h | item: CC[C@H](C)[C@H](NC(=O)[C@H](CCCNC(=N)N)NC(=O)[C@H](CCCNC(=N)N)NC(=O)[C@H](CC(C)C)NC(=O)[C@H](Cc1ccccc1)NC(=O)[C@H](Cc1ccccc1)NC(=O)[C@H](Cc1ccccc1)NC(=O)[C@@H](N)Cc1ccccc1)C(=O)N[C@@H](Cc1ccccc1)C(N)=O [F-SHf(R^5)] (H-FFFFLRRIF-NH2; N-terminus assumed)
4600

* * *

test system: A. baumannii 1318; assay type: cell-based, Acinetobacter baumannii
Non-standard residues stand in square brackets, D forms with d. Residues, ends and D or L forms follow the SMILES beside them.
ENDPOINT: MIC Gram- A. b 1318 (µM)
Give bare numbers, in µM.

Recorded MIC Gram- A. b 1318, per entry:
compound="CC[C@H](C)[C@H](NC(=O)[C@H](CCCNC(=N)N)NC(=O)[C@H](CCCNC(=N)N)NC(=O)[C@H](CC(C)C)NC(=O)[C@H](Cc1ccccc1)NC(=O)[C@H](Cc1ccccc1)NC(=O)[C@H](Cc1ccccc1)NC(=O)[C@H](Cc1ccccc1)NC(=O)[C@@H](N)Cc1ccccc1)C(=O)N[C@@H](Cc1ccccc1)C(N)=O [FF-SHf(R^5)] (H-FFFFFLRRIF-NH2; N-terminus assumed)" value_reported=50
compound="CC[C@H](C)[C@H](NC(=O)[C@H](CCCNC(=N)N)NC(=O)[C@H](CCCNC(=N)N)NC(=O)[C@H](CC(C)C)NC(=O)[C@@H](N)Cc1ccccc1)C(=O)N[C@@H](Cc1ccccc1)C(=O)N[C@@H](Cc1ccccc1)C(=O)N[C@@H](Cc1ccccc1)C(=O)N[C@@H](Cc1ccccc1)C(N)=O [HT1] (H-FLRRIFFFF-NH2)" value_reported=25

Give its MIC Gram- A. b 1318 value. Item: CC[C@H](C)[C@H](NC(=O)[C@H](CCCNC(=N)N)NC(=O)[C@@H](CCCNC(=N)N)NC(=O)[C@H](CC(C)C)NC(=O)[C@H](Cc1ccccc1)NC(=O)[C@H](Cc1ccccc1)NC(=O)[C@H](Cc1ccccc1)NC(=O)[C@@H](N)Cc1ccccc1)C(=O)N[C@@H](Cc1ccccc1)C(N)=O [F-SHf(dR^5)] (H-FFFFL[dR]RIF-NH2; N-terminus assumed)
25
